# Tested Target: MTHFD2 recombinant human enzyme (Homo sapiens)
# Sequence (P13995 36-350): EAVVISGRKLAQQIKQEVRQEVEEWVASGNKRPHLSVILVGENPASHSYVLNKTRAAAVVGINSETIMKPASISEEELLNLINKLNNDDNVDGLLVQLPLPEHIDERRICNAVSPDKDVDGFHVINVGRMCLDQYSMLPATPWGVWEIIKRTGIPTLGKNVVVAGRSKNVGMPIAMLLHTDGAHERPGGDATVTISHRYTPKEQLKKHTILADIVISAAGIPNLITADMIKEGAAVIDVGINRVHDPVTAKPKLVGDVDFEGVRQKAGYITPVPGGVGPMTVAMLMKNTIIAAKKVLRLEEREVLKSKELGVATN
# Method Description: MTHFD2 inhibition assay (NAD(P)H-Glo luminescence)
pIC50: −log10 of the molar value.
Quantity: pIC50

Req: # lookup: pIC50 of COC[C@H]1CN(c2cc(C)c3c4c(c(=O)oc3c2C)CN(C(=O)c2ccc(C(=O)NS(=O)(=O)C3(C)CC3)c(N3CCC3)c2)CC4)CCN1C [Example 91]
Resp: 8.00 to 9.00

Req: Likewise for COC[C@H]1CN(c2cc(C)c3c4c(c(=O)oc3c2C)CN(C(=O)c2ccc(C(=O)NS(=O)(=O)C3(C)CC3)c(N3CCCC3)c2F)CC4)CCN1C [Example 69] ?
Resp: 7.00 to 8.00

Req: Now give it for CCOc1c(C(=O)NS(=O)(=O)N2CC3(CCC3)C2)ccc(C(=O)N2CCc3c(c(=O)oc4c(C)c(N5CCN(C)[C@@H](COC)C5)cc(C)c34)C2)c1F [Example 233] too.
Resp: 7.00 to 8.00

Req: Entry COC[C@H]1CN(c2ccc3c4c(c(=O)oc3c2Cl)CN(C(=O)c2ccc(C(=O)NS(=O)(=O)C3(C)CC3)c(OC3CCC3)c2)CC4)CCN1C [Example 10] please
Resp: 7.00 to 8.00

* * *

# Tested Target: MTHFD1 recombinant human enzyme (Homo sapiens, UniProt P11586)
# Sequence (P11586 2-291 limits assumed): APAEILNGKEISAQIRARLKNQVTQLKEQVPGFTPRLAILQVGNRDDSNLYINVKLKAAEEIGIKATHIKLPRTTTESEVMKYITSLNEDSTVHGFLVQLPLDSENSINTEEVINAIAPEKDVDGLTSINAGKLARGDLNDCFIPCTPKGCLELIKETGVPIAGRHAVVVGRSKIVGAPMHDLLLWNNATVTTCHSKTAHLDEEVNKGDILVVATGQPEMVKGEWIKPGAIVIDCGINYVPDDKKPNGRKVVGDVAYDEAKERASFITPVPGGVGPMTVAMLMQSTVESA
# Method Description: MTHFD1 inhibition assay (NAD(P)H-Glo luminescence)
# Condition Notes: MTHFD1 IC50, recombinant human enzyme 200 nM, NADP, band
Quantity: IC50

Req: So what's the measured IC50 for this one? CCOc1cc(C(=O)N2CCc3c(c(=O)oc4c(C)c(N5CCN(C)[C@@H](COC)C5)cc(Cl)c34)C2)c(F)cc1C(=O)NS(=O)(=O)N1CC2(CCC2)C1 [Example 300]
Resp: 100 to 1000 nM

Req: What do you have for COC[C@H]1CN(c2cc(C)c3c4c(c(=O)oc3c2C)CN(C(=O)c2ccc(C(=O)NS(=O)(=O)N(C)C)c(O[C@@H]3C[C@@H]5C[C@@H]5C3)c2F)CC4)CCN1C [Example 11] ?
Resp: 1 to 10 nM

Req: Another molecule: Cc1c(N2CCN(C)[C@@H](COC(C)C)C2)ccc2c3c(c(=O)oc12)CN(C(=O)c1ccc(C(=O)NS(=O)(=O)N2CCCC2)c(OC2CCC2)c1F)CC3 [Example 192]
Resp: 100 to 1000 nM

Req: // next record COC[C@H]1CN(c2cc(C)c3c4c(c(=O)oc3c2C)CN(C(=O)c2ccc(C(=O)NS(=O)(=O)N(C)C)c(N3CCCC(F)(F)C3)c2F)CC4)CCN1C [Example 78]
Resp: 1 to 10 nM

Req: Now the same for COC[C@H]1CN(c2cc(C)c3c4c(c(=O)oc3c2C)CN(C(=O)c2ccc(C(=O)NS(=O)(=O)N(C)C)c(N3CC5CC5C3)c2F)CC4)CCN1C (some centres unmarked) [Example 72]
Resp: 1 to 10 nM

Req: Note, next up: COC[C@H]1CN(c2ccc3c4c(c(=O)oc3c2)CN(C(=O)c2ccc(C(=O)NS(=O)(=O)N3CCCC3)c(OC3CCCC3)c2F)CC4)CCN1C [Example 183]
Resp: > 5000 nM

Req: Another: COC[C@H]1CN(c2cc(C)c3c4c(c(=O)oc3c2C)CN(C(=O)c2cc(OC3CCC3)c(C(=O)NS(=O)(=O)N(C)C)cc2F)CC4)CCN1C [Example 93]
Resp: 10 to 100 nM

Req: Repeat with COC[C@H]1CN(c2cc(C)c3c4c(c(=O)oc3c2C)CN(C(=O)c2ccc(C(=O)NS(=O)(=O)N3C5CCC3CC5)c(C)c2F)CC4)CCN1C [Example 241]
Resp: 100 to 1000 nM

Req: Record: COC[C@H]1CN(c2cc(C)c3c4c(c(=O)oc3c2C)CN(C(=O)c2ccc(C(=O)NS(=O)(=O)C3(C)CC3)c(N3C5CCC3CC5)c2F)CC4)CCN1C [Example 73]
Resp: 1 to 10 nM

Req: And COC[C@H]1CN(c2cc(C)c3c4c(c(=O)oc3c2C)CN(C(=O)c2cc(N(C)C)c(C(=O)NS(=O)(=O)N(C)C3CC3)cc2F)CC4)CCN1C [Example 257] ?
Resp: 100 to 1000 nM

Req: Do the same for COC[C@H]1CN(c2cc(C)c3c4c(c(=O)oc3c2C)CN(C(=O)c2cc(OC3CC3)c(C(=O)NS(=O)(=O)N3C5CCC3CC5)cc2F)CC4)CCN1C [Example 331] please
Resp: 100 to 1000 nM
